- assaySummary: yeast display, Sf9 membrane polyspecificity reagent, FACS + sequencing; frameworks hold sequencing errors
testReadout: polyreactivity (PSR sort gate)

>>> recordedmeasurement("QVQLVESGGGLVQAGGSLRLSCAASGRIFYGNTMGWSRQAPGKERELVAAISLRGGSTYYADSVKGRFTISRDTAKNTVSLQMNSLKPEDTAVYYCAATGGRGPRRYYWGQGTQVTVSS")
"high polyreactivity"
>>> recordedmeasurement("QVQLVESGGGLVQAGGSLRLSCAASGSIFGDNAMGWSRQAPGKERDLVAAISSGGPTYADSVKGRFTISRDYAKNTVYLLMNSLKPEDTAVYYCNATDGMTPYDLTDIEFDYWGQGTHVTVSS")
"low polyreactivity"
>>> recordedmeasurement("QVQLVESGGGLVQAGGSLRLSCAASGSIFQENAMGWYRQAPGKERELVAAINTGSITSYADSVKGRFTISRDNAKNTVYLQMNSLKPEDTAVYYCAADSFSLYDSWGQGTQVTVSS")
"low polyreactivity"
>>> recordedmeasurement("QVQLVESGGGLVQAGGSLRLSCADSGYTFYFYAMGWYRQAPGKESELVAAITGGGTTSYADSVKGRFTISRDNAKNTVYLEMNSLKPEDTAFYYCAAYAYGVWQYQYGGNYWGQGTQVTVSS")
"low polyreactivity"
>>> recordedmeasurement("QVQLVESGGGLVQAGGSLRLSCAASGGTFFSNAMGWYRQAPGKERELVAGITSGGRTYYADSVKGRFTISRDNAKNTVYLQMNSLKPEDTAVYYCATQSWVRYGQPEFDYWGQGTQVTVSS")
"high polyreactivity"
>>> recordedmeasurement("QVQLVESGGGLVQAGGSLRLSCAASGSIFITYAMGWYRQPPGKERELVATITSRSGGTYYADSVKGRFTISRDNAQNTVYLQMNSLKPEDTAVYYCNAVYTYPVFHGMGYWGQGTQVTVSS")
"high polyreactivity"

Below is a list of sequences. For each, state its recorded polyreactivity (PSR sort gate).
1. QVQLVESGGGLVQAGGSLRLSCAASGSILVEYAMGWYRQAPGKERELVAGISGSTGTTYYADSVKGRFTISRDNAKNTVYLQMNSLKPEDTAVYYCAKLFPVARPQYGYWGQGTQVTVSS
2. QVQLVESGGGLVQAGGSLRLSCAASGRTFSKYAMGWYRQAPGKERELVAAITRSGSSTYYADSVKGRFTISRDNAKNTVYLQMNCLKPEDTAVYYCAADRYLRSSGSAPDYGYWGQGTQVTVSS

Ans:
1: low polyreactivity; 2: low polyreactivity
